assay: Inhibition of human N-terminal His6-tagged Bcl2 isoform 2 expressed in Escherichia coli BL21(DE3) assessed as inhibition of Fluorescein-labeled BIM binding after 1 to 2 hrs by fluorescence polarization assay
A collection of molecules and their measured Ki

- structure-string: "Cc1c(C(=O)O)c(-c2cccc(N3CCN(c4ccc(NS(=O)(=O)c5ccc(N[C@H](CCN(C)C)CSc6ccccc6)c([N+](=O)[O-])c5)cc4)CC3)c2)c(-c2ccc(Cl)cc2)n1C1CC1"
  result-operator: "="
  Ki (nM): 4.3
- structure-string: "CNC(=O)c1c(-c2cccc(N3CCN(c4ccc(NS(=O)(=O)c5ccc(N[C@H](CCN(C)C)CSc6ccccc6)c([N+](=O)[O-])c5)cc4)CC3)c2)c(-c2ccc(Cl)cc2)n(C)c1C"
  result-operator: "="
  Ki (nM): 1.1
- structure-string: "CCn1c(C)c(C(=O)O)c(-c2cccc(N3CCN(c4ccc(NS(=O)(=O)c5ccc(N[C@H](CCN(C)C)CSc6ccccc6)c([N+](=O)[O-])c5)cc4)CC3)c2)c1-c1ccc(Cl)cc1"
  result-operator: "<"
  Ki (nM): 0.6
- structure-string: "Cc1c(C(=O)NCCCN2CCN(C)CC2)c(-c2ccccc2)c(-c2ccc(Cl)cc2)n1C"
  result-operator: "="
  Ki (nM): 38000
- structure-string: "Cc1c(C(=O)NCCCN2CCN(C)CC2)c(-c2cccc(N3CCN(c4ccc(NS(=O)(=O)c5ccc(N[C@H](CCN(C)C)CSc6ccccc6)c([N+](=O)[O-])c5)cc4)CC3)c2)c(-c2ccc(Cl)cc2)n1C"
  result-operator: "<"
  Ki (nM): 0.6
- structure-string: "Cc1c(C(=O)O)c(-c2cccc(N3CCN(c4ccc(NS(=O)(=O)c5ccc(N[C@H](CCN(C)C)CSc6ccccc6)c([N+](=O)[O-])c5)cc4)CC3)c2)c(-c2ccc(Cl)cc2)n1C"
  result-operator: "<"
  Ki (nM): 0.6
- structure-string: "Cc1c(C(=O)NCCCN2CCN(C)CC2)c(-c2cccc(N3CCN(c4ccc(C(=O)NS(=O)(=O)c5ccc(N[C@H](CCN(C)C)CSc6ccccc6)c([N+](=O)[O-])c5)cc4)CC3)c2)c(-c2ccc(Cl)cc2)n1C"
  result-operator: "="
  Ki (nM): 7

---

Reported pIC50 values follow for various compounds
target: Induced myeloid leukemia cell differentiation protein Mcl-1 (Homo sapiens, UniProt Q07820); assay: Inhibition of human N-terminal His8-tagged Mcl1 expressed in Escherichia coli BL21(DE3) assessed as inhibition of Fluorescein-labeled BID binding after 1 to 2 hrs by fluorescence polarization assay
Sequence (Q07820 whole entry): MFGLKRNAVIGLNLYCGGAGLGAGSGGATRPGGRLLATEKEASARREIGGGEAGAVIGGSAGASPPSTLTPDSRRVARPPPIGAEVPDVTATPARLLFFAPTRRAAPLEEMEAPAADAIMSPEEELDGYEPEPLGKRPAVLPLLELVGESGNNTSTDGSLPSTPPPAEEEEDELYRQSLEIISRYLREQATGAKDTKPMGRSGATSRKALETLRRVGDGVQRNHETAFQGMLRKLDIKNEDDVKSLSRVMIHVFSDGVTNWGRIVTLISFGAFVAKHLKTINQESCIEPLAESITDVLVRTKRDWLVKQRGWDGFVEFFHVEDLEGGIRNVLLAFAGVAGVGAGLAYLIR
pIC50: −log10 of the molar value.

- structure-string: "Cc1c(C(=O)NCCCN2CCN(C)CC2)c(-c2cccc(N3CCN(c4ccc(NS(=O)(=O)c5ccc(N[C@H](CCN(C)C)CSc6ccccc6)c([N+](=O)[O-])c5)cc4)CC3)c2)c(-c2ccc(Cl)cc2)n1C"
  pIC50: "< 5.00"
- structure-string: "Cc1c(C(=O)NCCCN2CCN(C)CC2)c(-c2ccccc2)c(-c2ccc(Cl)cc2)n1C"
  pIC50: "< 4.00"
- structure-string: "Cc1c(C(=O)O)c(-c2cccc(N3CCN(c4ccc(NS(=O)(=O)c5ccc(N[C@H](CCN(C)C)CSc6ccccc6)c([N+](=O)[O-])c5)cc4)CC3)c2)c(-c2ccc(Cl)cc2)n1C1CC1"
  pIC50: "< 5.70"
- structure-string: "Cc1cc(-c2cccc(N3CCN(c4ccc(NS(=O)(=O)c5ccc(N[C@H](CCN(C)C)CSc6ccccc6)c([N+](=O)[O-])c5)cc4)CC3)c2)c(-c2ccc(Cl)cc2)n1C"
  pIC50: "< 5.00"
- structure-string: "Cc1c(C(=O)O)c(-c2cccc(N3CCN(c4ccc(NS(=O)(=O)c5ccc(N[C@H](CCN(C)C)CSc6ccccc6)c([N+](=O)[O-])c5)cc4)CC3)c2)c(-c2ccc(Cl)cc2)n1C(C)C"
  pIC50: "< 5.70"
- structure-string: "CCn1c(C)c(C(=O)O)c(-c2cccc(N3CCN(c4ccc(NS(=O)(=O)c5ccc(N[C@H](CCN(C)C)CSc6ccccc6)c([N+](=O)[O-])c5)cc4)CC3)c2)c1-c1ccc(Cl)cc1"
  pIC50: "< 5.70"
- structure-string: "Cc1c(C(=O)O)c(-c2cccc(N3CCN(c4ccc(NS(=O)(=O)c5ccc(N[C@H](CCN(C)C)CSc6ccccc6)c([N+](=O)[O-])c5)cc4)CC3)c2)c(-c2ccc(Cl)cc2)n1C"
  pIC50: "< 5.70"
- structure-string: "Cc1c(C(=O)NCCCN2CCN(C)CC2)c(-c2cccc(N3CCN(c4ccc(C(=O)NS(=O)(=O)c5ccc(N[C@H](CCN(C)C)CSc6ccccc6)c([N+](=O)[O-])c5)cc4)CC3)c2)c(-c2ccc(Cl)cc2)n1C"
  pIC50: "< 4.00"
